- Test protocol: folding stability dG unfold from trypsin proteolysis; higher = more stable
Please enter YES where folding stability dG unfold is greater than or equal to 2 kcal/mol, and NO where it is lower.

{"Chain": "SAGGSAGGSMVIRVTVKLPNGEEKVFEIEVSEEELKNMSIEELKKLAEELGLPEDVKIELVPPSAGGSAGGS [r12_742_TrROS_Hall]", "Answer label": "YES"}
{"Chain": "SAGGEKIKLKVVIKVPKELKNLSKEEIEELLKKKLGPNYKITKVEIKVEKNENGEEYLVVEVEIEKESAGGS [r16_408_TrROS_Hall]", "Answer label": "YES"}
{"Chain": "SAGGSAGGSAGGMLVRIPRGDKGFVLEIETDGVRTVEEFDGTEEEIREYAEKNGFEILESAGGSAGGSAGGS [r10_506_JUSTAS]", "Answer label": "NO"}
{"Chain": "SAGGSAGSGFEEEAAAAFAASAGAMTLTVVEREPDSYTVATVTRTPGTGAPTVTVTTLSPETLAAASAGGSA [r15_156_JUSTAS]", "Answer label": "NO"}
{"Chain": "SAGGPPIKKAEIKEIYPEKGIINAIIELEDIPKPYEAIGIITDEKEGIIFVEIINPEGGPPLYFTIKASAGG [r13_337_TrMRF]", "Answer label": "NO"}
{"Chain": "SAGGSAGGSVESATTTITITASLTPEEVEEIIEELKKKGLNVKKVEIEREPETGSVTITVTVNPSAGGSAGG [r6_514_JUSTAS]", "Answer label": "YES"}
{"Chain": "SAGGSAGGMIKITITVPPGVSPEFVREKIAPLGVEVLSVEPLPDGTHRVTIEIPPEITKNPELLSAGGSAGG [r6_470_JUSTAS]", "Answer label": "NO"}
{"Chain": "SAGGSAGGSMRVEITEVKEVRGEGGEPRYLVTVRITVPDGKEETFVYEFKTPEELEKLEVELPSAGGSAGGS [r20_130_JUSTAS]", "Answer label": "YES"}
{"Chain": "SAGGSAGGSAGSYEFDPSKSALVRVTLQPPDGVPVEIEIPVEELEEILPGDRPVLSIEVSSAGGSAGGSAGG [r17_449_JUSTAS]", "Answer label": "NO"}
{"Chain": "SAGGSAGGSAGGTPIAETEVSEDPATGKLITTSKSPTDPKVYVTTTDLATGVPTTTPLLSAGGSAGGSAGGS [r10_1034_JUSTAS]", "Answer label": "NO"}
{"Chain": "SAGGSAGGSAGKIRDPNGNPFQIKDVEVEPPGPGDPYISIEYPDNGEEFTLPPEDAEDLFSAGGSAGGSAGG [r17_517_TrROS]", "Answer label": "NO"}
{"Chain": "SAGGPVETPGPHPLRPVPVVEPKKVVVTYPDLSPEEAAALAAELEAQGATTSFDPATGTLTVTLTGLSAGGS [r16_765_JUSTAS]", "Answer label": "NO"}
{"Chain": "SAGMKPGETIKNAKIRITYPNGEKKELKIDDVVKIVEIDEEKGVITIELKNGEKIEIKLPPGAKIEIEPSAG [r5_762_TrROS_Hall]", "Answer label": "YES"}
{"Chain": "SAGGSAGGSAGGFTIKIETRPMPMFSKDGKPLAEMNMYRIKIEVPDMPPGLADKLIDLIQSAGGSAGGSAGG [r7_450_TrROS]", "Answer label": "NO"}
{"Chain": "SAGGSAGGKLSIPIHIPGLTPEEARKIVKYFAAAGIPPDNVTIEVQPVPPVPPMTPEEMEKHNKSAGGSAGG [r6_246_TrROS]", "Answer label": "NO"}
{"Chain": "SAGGNRKFTLIIRIKAPPGDPDKMKEEVKEIANEIADIFRDHGVKVKVKVEYDPDNGEIYVQVEFEVPSAGG [r13_755_TrROS]", "Answer label": "YES"}
{"Chain": "SAGGGPFGIPFPFPIEDPDRLDLVEGLVAELEEFFRSLGAGPLTAERVGDTTYVVLVPFDGKPIVSGSAGGS [r16_703_TrMRF]", "Answer label": "NO"}
{"Chain": "SAGGSAGGMVTVPVPKDKPLNPVATVKLPDGSTIPAGPVAVDLEKGTATLEVPEPAEVIVEVNPSAGGSAGG [r6_180_JUSTAS]", "Answer label": "NO"}
{"Chain": "SAGGMFKGPDGNWKTYKTTKPGLTKSDIGPFVEELVEKFLKDHGLNPENVSAKAEYNPSTGTVNVYVGSAGG [r13_913_TrMRF]", "Answer label": "NO"}
{"Chain": "SAGGSAGGSPVPVKVVVKLPSSDKTIELTLYPPDVSPDSVVTVDLGGPAIDVKLLPGDVLELSPSAGGSAGG [r6_461_JUSTAS]", "Answer label": "NO"}
{"Chain": "SMKITEIEPDGDGTLEIEIPVEAPPGMDPDEVQIYVMSDDGIRHVRITPNGTVEITIENIPDIRIYIFVHSA [r9_722_TrROS]", "Answer label": "NO"}
{"Chain": "MFKPGTKVTFGDKTVEVPEGDELYIFEGKVFGTSEVEAVLENMSDDAVGYKLVVEDETGKIVKVEEFVFKPS [r1_304_TrMRF]", "Answer label": "NO"}
{"Chain": "SADFKPEGPSNNALVWKNPNSGKMFMIYPSDDNIEVQEIEYDPGNNKPEPETERVPLPEDDRDDLKDLLSAG [r14_245_TrROS]", "Answer label": "NO"}
{"Chain": "SAGGSAGGSVKITTEPDPNGYYRVTVTIRLNDKPIPVDMPFPPGKTPDQVKEKARDIAKELLKSAGGSAGGS [r12_69_TrROS]", "Answer label": "NO"}
{"Chain": "SAGGEVKTLEVTLEVNGKKVRVRVELTKDGTLKVTVTFEDGTKVELEIKLPKVKVKEVKFYSLEELKSAGGS [r16_48_TrROS_Hall]", "Answer label": "YES"}

###

- Test protocol: folding stability dG unfold from trypsin proteolysis; higher = more stable

{"Chain": "STLEELLEAIEKLPPGAVVRITITLENGEKIELPIEMTVEELKEQLEALAAEHPGKKIEIKIEVIPKEELSA [r9_37_TrROS_Hall]", "Measure unit": "kcal/mol", "folding stability dG unfold": 3.66}
{"Chain": "SAGGSAGGSAGGSSSIYYDPRYPNVAVNPETGEAVTGIPLEELEKLGATPVGPDWVRIDSAGGSAGGSAGGS [r4_306_TrMRF]", "Measure unit": "kcal/mol", "folding stability dG unfold": -0.659}
{"Chain": "SAGGSAGGSMPVKRELIITVTEPSSGTTRTLVVEVETEEEAEAVVAAVAAVPDRTVTEVRRLASAGGSAGGS [r12_152_JUSTAS]", "Measure unit": "kcal/mol", "folding stability dG unfold": 0.109}
{"Chain": "SAGGSAGGSAGRRVTINHNPENGFFRVKVYPPKGKSQVYPIPMENLEEIKKNLPPGVEIVSAGGSAGGSAGG [r11_569_TrROS]", "Measure unit": "kcal/mol", "folding stability dG unfold": 0.206}
{"Chain": "SAGPNLENLEIVEIKAEVLPDNSVIVPLKVRNDNGEEEEVWGRVGNGIVTLTYPNGFPAVAFIPPSAFSAGG [r19_84_TrMRF]", "Measure unit": "kcal/mol", "folding stability dG unfold": 0.683}
{"Chain": "SAGGSAPLPPGAVVEIVEVRFDPETRRIEMVVKVYDANGELVATLRVELEFDPETNELTLRVELLPSAGGSA [r15_1028_TrROS_Hall]", "Measure unit": "kcal/mol", "folding stability dG unfold": 3.41}
{"Chain": "SKTVVIKIDNRVPVPKSDKYVPIKEEFFLKVINEIKKKGYKVIITGANPDNPLAKEVAKKAKELGFEVVGSA [r9_468_TrMRF]", "Measure unit": "kcal/mol", "folding stability dG unfold": 0.992}
{"Chain": "SAGGSPKAREERFEKTLPDGTVVPVTLTRLPDGTVRVETTTYTYNSPEPVASTSTTTLPEAEVAAALSAGGS [r16_470_JUSTAS]", "Measure unit": "kcal/mol", "folding stability dG unfold": 0.631}
{"Chain": "SMEEVKEALRKAGIDVPVTKIETEKLPDGSYKVTLTVGDKKVLTVYVPPEPPEPPVFYRTPPNGSREPVLSA [r9_442_JUSTAS]", "Measure unit": "kcal/mol", "folding stability dG unfold": 0.291}
{"Chain": "SAGGKEVKPIKGKVKITVNGKEIEVEVKKAKIVKNKDGSYYIFIEKDGKKLLIKLKNGKLVKIEEVPSAGGS [r16_721_TrROS_Hall]", "Measure unit": "kcal/mol", "folding stability dG unfold": 2.37}
{"Chain": "SAGGMYILELTFTTPTSTTPRTVEVPPGNYEEAAKALREELAAEAGAADLEVTFTVYKVAPDGTLVEESAGG [r13_877_JUSTAS]", "Measure unit": "kcal/mol", "folding stability dG unfold": 1.16}
{"Chain": "SAGGSAGGSAGGKPKVIEIEITDKNGKKRKIKLIEKDGYVYLYDEKTGKLVKKFKLKDLSAGGSAGGSAGGS [r10_589_TrROS_Hall]", "Measure unit": "kcal/mol", "folding stability dG unfold": 3.04}
{"Chain": "SALPLPSSAKVELEWELVGVDPGSKGAKVYYRRTLKVTFPTGSLTVTYLVEYDPETGTFSWSITSVSPESAG [r14_293_TrMRF]", "Measure unit": "kcal/mol", "folding stability dG unfold": 4.1}
{"Chain": "SAGGSAGGPEYQMIPVKNVEIDEFDPNDGNVTIKFKGNGQEIKLPPDGIQSIEISPDQGWIYIRSAGGSAGG [r6_315_TrROS]", "Measure unit": "kcal/mol", "folding stability dG unfold": -0.318}

Where do the numbers come from? From the supplement of paper PMC12764529.
